test target: Large T antigen (Simian virus 40);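 note: Confirmatory-stage PubChem screen for compounds that inhibit SV40 T antigen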
Sequence (P03070 whole entry): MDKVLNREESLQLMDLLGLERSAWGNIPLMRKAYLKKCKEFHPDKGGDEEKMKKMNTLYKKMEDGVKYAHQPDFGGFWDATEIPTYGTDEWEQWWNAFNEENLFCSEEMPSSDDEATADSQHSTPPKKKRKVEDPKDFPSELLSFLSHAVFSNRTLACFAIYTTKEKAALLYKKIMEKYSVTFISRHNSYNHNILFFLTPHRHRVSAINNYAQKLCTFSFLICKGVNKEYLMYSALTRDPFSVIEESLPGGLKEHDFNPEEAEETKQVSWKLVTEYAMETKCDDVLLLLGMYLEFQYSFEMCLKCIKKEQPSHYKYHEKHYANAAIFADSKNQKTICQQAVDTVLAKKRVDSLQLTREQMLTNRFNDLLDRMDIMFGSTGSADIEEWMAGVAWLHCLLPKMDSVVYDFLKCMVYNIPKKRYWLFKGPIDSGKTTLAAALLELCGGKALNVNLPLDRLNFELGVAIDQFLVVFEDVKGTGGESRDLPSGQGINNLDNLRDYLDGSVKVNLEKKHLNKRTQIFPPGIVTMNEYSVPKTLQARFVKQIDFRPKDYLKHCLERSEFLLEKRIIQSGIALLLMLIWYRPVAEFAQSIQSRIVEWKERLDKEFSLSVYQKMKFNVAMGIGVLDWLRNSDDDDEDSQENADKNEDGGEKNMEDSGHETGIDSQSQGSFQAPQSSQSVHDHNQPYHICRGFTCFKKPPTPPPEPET
Assay type: functional, Betapolyomavirus macacae
The source made the active and inactive calls.
assay endpoint: IC50

In the examples that follow, each entry is paired with its recorded IC50.
Input line: Need IC50, item O=[N+]([O-])c1c(Nc2ccc(O)cc2)cc(Cl)c2nonc12
Output line: 12.3 µM (active)

Input line: // query: O=C(CN1C(=O)/C(=C/c2ccco2)SC1=S)NC1CCS(=O)(=O)C1 (centres undefined)
Output line: 85 µM (active)

Input line: // query: COc1cc2c(cc1O)CC[n+]1cc3c(OC)c(OC)ccc3cc1-2 [JATRORRHIZINE]
Output line: 10.1 µM (active)

Further cases:
Input line: Need IC50, item CCSC1(SCC)N=C(N)C2(C#N)C(c3ccc(OC)c(OC)c3OC)C12C#N (centres undefined)
Output line: > 100 µM (active)
